Reference source for all entries: ChEMBL document CHEMBL4020725

Molecular target: Adenosine receptor A1 (Homo sapiens) (UniProt P30542)
Sequence (P30542 whole entry): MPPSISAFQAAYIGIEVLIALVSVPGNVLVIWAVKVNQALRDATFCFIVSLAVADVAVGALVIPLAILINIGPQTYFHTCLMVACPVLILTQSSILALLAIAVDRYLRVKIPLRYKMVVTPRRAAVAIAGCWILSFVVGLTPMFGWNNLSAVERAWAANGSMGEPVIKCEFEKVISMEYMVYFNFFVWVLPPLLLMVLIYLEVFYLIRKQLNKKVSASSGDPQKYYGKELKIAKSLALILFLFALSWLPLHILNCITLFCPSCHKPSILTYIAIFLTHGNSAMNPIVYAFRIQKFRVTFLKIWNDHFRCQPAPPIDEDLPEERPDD
Assay: Displacement of [3H]-DPCPX from human adenosine A1 receptor expressed in HEK293 cell membranes at 0.1 uM after 90 mins relative to control
Measured inhibition of individual entries

INPUT_SMILES	SYSTEM	inhibition (%)
CCCn1c(=O)c2[nH]c(-c3cnn(CC#CCN4CCN(c5cccc(C(F)(F)F)c5)CC4)c3)nc2n(CCC)c1=O	Adenosine receptor A1 (Homo sapiens) (UniProt P30542)	69
CCCn1c(=O)c2[nH]c(-c3cnn(CC#Cc4ccc(C(=O)O)cc4)c3)nc2n(CCC)c1=O	Adenosine receptor A1 (Homo sapiens) (UniProt P30542)	19
CCCn1c(=O)c2[nH]c(-c3cnn(CC#Cc4cccc(C#N)c4)c3)nc2n(CCC)c1=O	Adenosine receptor A1 (Homo sapiens) (UniProt P30542)	52
CCCn1c(=O)c2[nH]c(-c3cnn(CC#Cc4cccc(F)c4)c3)nc2n(CCC)c1=O	Adenosine receptor A1 (Homo sapiens) (UniProt P30542)	87
CCCn1c(=O)c2[nH]c(-c3cnn(CC#CCN4CCOCC4)c3)nc2n(CCC)c1=O	Adenosine receptor A1 (Homo sapiens) (UniProt P30542)	28
CCCn1c(=O)[nH]c2nc(-c3cnn(CC#Cc4cccc(OC(F)(F)F)c4)c3)[nH]c2c1=O	Adenosine receptor A1 (Homo sapiens) (UniProt P30542)	14
CCCn1c(=O)c2[nH]c(-c3cnn(CC#Cc4cccc(OC(F)(F)F)c4)c3)nc2n(CCC)c1=O	Adenosine receptor A1 (Homo sapiens) (UniProt P30542)	39
CCCn1c(=O)c2[nH]c(-c3cnn(CC#Cc4ccc(C(F)(F)F)cc4)c3)nc2n(CC)c1=O	Adenosine receptor A1 (Homo sapiens) (UniProt P30542)	66
CCCn1c(=O)c2[nH]c(-c3cnn(CC#Cc4cccc(C(F)(F)F)c4)c3)nc2n(CCC)c1=O	Adenosine receptor A1 (Homo sapiens) (UniProt P30542)	43
CCCn1c(=O)c2[nH]c(-c3cnn(CC#Cc4ccc(OC(F)(F)F)cc4)c3)nc2n(CC)c1=O	Adenosine receptor A1 (Homo sapiens) (UniProt P30542)	84
CCCn1c(=O)c2[nH]c(-c3cnn(CC#CCN4CCCCC4)c3)nc2n(CCC)c1=O	Adenosine receptor A1 (Homo sapiens) (UniProt P30542)	64
CCCn1c(=O)c2[nH]c(-c3cnn(CC#Cc4ccc(C)cc4)c3)nc2n(CCC)c1=O	Adenosine receptor A1 (Homo sapiens) (UniProt P30542)	70
CCCn1c(=O)c2[nH]c(-c3cnn(CC#Cc4cccc(OC)c4)c3)nc2n(CCC)c1=O	Adenosine receptor A1 (Homo sapiens) (UniProt P30542)	57
CCCn1c(=O)c2[nH]c(-c3cnn(CC#CCN(CC)CC)c3)nc2n(CCC)c1=O	Adenosine receptor A1 (Homo sapiens) (UniProt P30542)	71
CCCn1c(=O)c2[nH]c(-c3cnn(CC#Cc4cccc(OC(F)(F)F)c4)c3)nc2n(CC)c1=O	Adenosine receptor A1 (Homo sapiens) (UniProt P30542)	17
CCCn1c(=O)c2[nH]c(-c3cnn(CC#CCN4CCN(C)CC4)c3)nc2n(CCC)c1=O	Adenosine receptor A1 (Homo sapiens) (UniProt P30542)	55
CCCn1c(=O)[nH]c2nc(-c3cnn(CC#Cc4cccc(C(F)(F)F)c4)c3)[nH]c2c1=O	Adenosine receptor A1 (Homo sapiens) (UniProt P30542)	26
CCCn1c(=O)c2[nH]c(-c3cnn(CC#Cc4cccc(C(=O)O)c4)c3)nc2n(CCC)c1=O	Adenosine receptor A1 (Homo sapiens) (UniProt P30542)	20
CCCn1c(=O)c2[nH]c(-c3cnn(CC#Cc4ccccc4C(F)(F)F)c3)nc2n(CCC)c1=O	Adenosine receptor A1 (Homo sapiens) (UniProt P30542)	52
CCCn1c(=O)[nH]c2nc(-c3cnn(CC#Cc4ccc(OC(F)(F)F)cc4)c3)[nH]c2c1=O	Adenosine receptor A1 (Homo sapiens) (UniProt P30542)	88
C#CCn1cc(-c2nc3c([nH]2)c(=O)n(CCC)c(=O)n3CCC)cn1	Adenosine receptor A1 (Homo sapiens) (UniProt P30542)	56
